# Assay target: T1, ZFP SBS#435 (synthetic)
# T1 chain: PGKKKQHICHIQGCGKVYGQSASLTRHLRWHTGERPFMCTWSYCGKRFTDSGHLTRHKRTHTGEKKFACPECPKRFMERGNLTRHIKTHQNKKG
# Method: EMSA
# Experimental setup: tags: MBP fusion
Property label: Kd (nM)

{"Binder": "GACGGCGTA (dsDNA) DNA 1: GACGGCGTA DNA 2: TACGCCGTC", "Property label": "Kd", "Readout unit": "nM", "Number": 150}
